Tested on: A498 renal
Experiment: NCI tumour cell line growth inhibition, 48 h
reported_endpoint: TGI

Req: What does the record list as TGI for "CC(C)C[C@H](NC(=O)Cn1ccc(NCc2ccccc2)cc1=O)B(O)O" ?
Resp: 1.59 µM

Req: Request the reported TGI associated with "C=C1C(=O)O[C@H]2[C@H]1CC/C(COC(=O)C(=O)c1cn(C)c3ccc(Cl)cc13)=C\CC[C@@]1(C)O[C@@H]21"
Resp: 3.86 µM

Req: Given the entry "CC(=C/C=C/C=C(C)\C=C\C=C(\C)C(=O)O)/C=C/C=C(/C)C(=O)O" , report its measured TGI.
Resp: > 100 µM

Req: What TGI value was documented for this compound, "c1ccc(C2=NCCN2)c(C2=NCCN2)c1" ?
Resp: > 100 µM

Req: Dear colleague, I am looking for the recorded TGI of the following compound: CCN(CC)CCCNC(=O)C1COc2cc(-c3cc(=O)c4ccccc4o3)ccc2O1 (configuration not stated)
Resp: > 100 µM

Req: Can you share its TGI? I mean this compound: "O=C(O)CCCSc1ccccc1"
Resp: > 100 µM

Req: Which TGI value is on record for CC12CCC(C(Nc3cc(C(F)(F)F)cc(C(F)(F)F)c3)C1=O)C2(C)C (configuration not stated) ?
Resp: > 100 µM

###

System: NCI-H226 lung
Assay: NCI tumour cell line growth inhibition, 48 h; in the data active means GI50 below about 0.43 µM; inactive means the rest
Choose the fitting class; nothing outside T = active, F = inactive is accepted.

# count of solved cases: 5
[
  {
    "compound": "Cc1cc(-c2nc3sccn3c2/C=N/N=C(N)N)c(C)s1",
    "system_name": "NCI-H226 lung",
    "label": "F"
  },
  {
    "compound": "COc1cc2ncn(-c3cc(O[C@@H](C)c4ccccc4Cl)c(C(N)=O)s3)c2cc1OC",
    "system_name": "NCI-H226 lung",
    "label": "F"
  },
  {
    "compound": "Cc1cc(O)cc2c1[C@]1(C)CCC3C(C)(C)CCC[C@]3(C)[C@H]1C2 (some centres undefined)",
    "system_name": "NCI-H226 lung",
    "label": "F"
  },
  {
    "compound": "Cc1nc2sc(C(=O)Nc3cccc4ccccc34)c(N)c2cc1C(O)c1ccccc1 (centres undefined)",
    "system_name": "NCI-H226 lung",
    "label": "F"
  },
  {
    "compound": "C[C@]12CC[C@@H]3c4cc(-c5ccc(F)cc5)c(O)cc4CC[C@H]3[C@@H]1CC[C@@H]2O",
    "system_name": "NCI-H226 lung",
    "label": "F"
  }
]

Req: Query: recorded result category for "COc1cc(-c2ccc(-c3ccc(C(=N)N)nc3)s2)cc(OC)c1OC" in this test
Resp: F

Req: What is the recorded call for this compound in the test? C=C(NC(=O)C(=C)NC(=O)c1csc(C2=NC3c4csc(n4)C4NC(=O)c5csc(n5)C(C(C)(O)C(C)O)NC(=O)C5CSC(=N5)C(=CC)NC(=O)C(C(C)O)NC(=O)c5csc(n5)C3(CC2)NC(=O)C(C)NC(=O)C(=C)NC(=O)C(C)NC(=O)C(C(C)CC)NC2C=Cc3c(C(C)O)cc(nc3C2O)C(=O)OC4C)n1)C(N)=O (centres undefined)
Resp: F

Req: Kindly provide the recorded test outcome for the following compound: "C[C@@H](O)[C@H](NC(=O)N[C@@H](CC(N)=O)c1nc([C@@H](N)CO)no1)C(=O)O"
Resp: F

Req: Identify the outcome logged in this assay for the compound shown: N#CC1=C(N)Oc2c(ccc3ccccc23)C1c1ccccc1 (centres undefined)
Resp: F

Req: For "CCC(=O)Nc1ccccc1C#C/C=C\C#Cc1ccccc1SC" , which call appears in the assay record?
Resp: F

Req: Assay outcome for "COC(=O)c1cc2c3ccccc3n3c(=O)c4cc5ccccc5nc4c(n1)c23" : what was it?
Resp: F

###

Test system: UACC-62 melanoma
Test: NCI tumour cell line growth inhibition, 48 h
reported_endpoint: TGI (µM)
Give just the numeric value; µM need not be written.

[
  {
    "compound": "CC(O)c1cc2c(s1)C(=O)c1ccsc1C2=O (centres undefined)",
    "TGI (µM)": 0.0733
  }
]

In the following, a different compound is considered.
Req: Using the record for "COc1ccc(NC([Se])=NC23CC4CC(CC(C4)C2)C3)cc1" , report its TGI.
Resp: 4.96

###

System: IGROV1 ovarian
Assay: NCI tumour cell line growth inhibition, 48 h
reported_endpoint: TGI

[
  {
    "molecule": "O=C(O)c1ccc(Oc2nccc(-c3c(-c4ccc(F)cc4)ncn3C3CCNCC3)n2)cc1",
    "result": "> 25 µM"
  },
  {
    "molecule": "CC1=CC[C@H](C(C)C)C(C(O)[C@@H](C)O[Si](c2ccccc2)(c2ccccc2)C(C)(C)C)C1=O (stereo partly drawn)",
    "result": "64.8 µM"
  },
  {
    "molecule": "Cc1ccccc1NC(=O)c1c(C)oc2c1C(=O)c1ccccc1C2=O",
    "result": "> 100 µM"
  }
]

Req: Consider the molecule shown here: "Cc1ccc(Cc2cnc(NC(=O)/C=C/c3cccc(C)c3)s2)cc1" What is its recorded TGI?
Resp: 15.5 µM

Req: # input molecule: "CS(=O)(=O)CCNCc1ccc(-c2ccc3ncnc(Nc4ccc(OCc5ccccc5)c(Br)c4)c3c2)o1" ; wanted: its TGI
Resp: > 25 µM

Req: What TGI value was documented for this molecule, "CC(C)(C)CC(C)(C)c1cc2c(O)c(c1)Cc1cc(C(C)(C)CC(C)(C)C)cc(c1O)Cc1cc(C(C)(C)CC(C)(C)C)cc(c1O)Cc1cc(C(C)(C)CC(C)(C)C)cc(c1O)Cc1cc(C(C)(C)CC(C)(C)C)cc(c1O)C2" ?
Resp: > 100 µM

Req: Quick one: TGI for "CCn1c(SCC(=O)N/N=C/c2ccccc2)nc2ccccc2c1=O" ?
Resp: > 93.1 µM

Req: Dear colleague, I am looking for the recorded TGI of the following molecule: "CCN(CC)c1ccc2cc(C(N)=S)c(=N)oc2c1"
Resp: > 100 µM

###

Entries annotated with measured TGI
System: NCI-H23 lung
Assay: NCI tumour cell line growth inhibition, 48 h
Where a SMILES comes first, the peptide text is derived from it. [ ]: non-standard residue; d: D form. The star is where a group is joined. Iva = CC[C](C)(N)C(=O)O; Boc = CC(C)(C)OC(=O)*; X52 = C1CCC(=NO*)C1

Look over these answered cases.
[
  {
    "compound": "Cc1nc2sc(C(=O)Nc3cccc4ccccc34)c(N)c2cc1C(O)c1ccccc1 (stereo unspecified)",
    "result": "15.3 µM"
  },
  {
    "compound": "Nn1c(CCCCCCCCc2nnc(COc3ccc4ccccc4c3O)n2N)nnc1COc1ccc2ccccc2c1O",
    "result": "41.6 µM"
  },
  {
    "compound": "CCC(C)(NC(=O)C(C)NC(=O)OC(C)(C)C)C(=O)NC(C)C(=O)NC(C)(CC)C(=O)ON=C1CCCC1 (stereo unspecified) (Boc-A[Iva]A[Iva]-X52; configuration not given here)",
    "result": "> 100 µM"
  },
  {
    "compound": "N#CC1C(=O)SC2c3ccccc3C(=O)c3ccccc3C12 (stereo unspecified)",
    "result": "> 10 µM"
  },
  {
    "compound": "N#CC(C#N)=C/C=C(\\Sc1c(Cl)c(Cl)nc(Cl)c1Cl)c1ccc(Cl)cc1",
    "result": "35.9 µM"
  }
]

Req: So what's the measured TGI for this one? O=C(CC(C(=O)c1cccs1)c1cccs1)c1ccsc1 (stereo unspecified)
Resp: > 100 µM

###

System: EKVX NSCLC
Test: NCI tumour cell line growth inhibition, 48 h
# TGI listing for each entry below

Here are 4 compounds together with their reported answers.
[
  {
    "compound": "CC(C)[O-].CC(C)[O-].O=C1C=C([O-])C(=O)c2ccccc21.O=C1C=C([O-])C(=O)c2ccccc21.[Ti+4]",
    "TGI": "> 91.1 µM"
  },
  {
    "compound": "CCCN(CCC)c1ccc(/C=C/c2ccc3cc(OCC)ccc3n2)cc1",
    "TGI": "> 100 µM"
  },
  {
    "compound": "CC(=O)CC(N)=O",
    "TGI": "> 100 µM"
  },
  {
    "compound": "CCOC(=O)NC1C2CC(=O)OC(O2)C1OC(C)=O (stereo not given)",
    "TGI": "> 100 µM"
  }
]

Continue with the compound presented below.
Req: Query (compound): "Cn1nc(-c2ccccc2)c(C(=O)/C=C/c2ccc(Cl)cc2)c(N2CCCCC2)c1=O" ; field requested: TGI
Resp: 15.3 µM
